Biological target: Hexose transporter 1 (Plasmodium falciparum)
Experiment: ST_JUDE_LEISH: Cytotoxicity at 2uM final concentration against transgenic Leishmania Mexicana promastigotes LmPfHT that are glucose transport deficient and complemented with the Plasmodium falciparum hexose transporter. Activity is measured by DNA content using SYBR green in vitro
Type: functional
# inhibition listing for each entry below

{"MOLECULE": "CN(C)c1cccc(CN2CC=C(c3c[nH]c4ccc(Cl)cc34)CC2)c1", "inhibition (%)": 6.95}
{"MOLECULE": "Cc1c(C(=O)N[C@@H](C)c2ccccc2)c2cc(O)c(Br)cc2n1C1CCCCC1", "inhibition (%)": 2.43}
{"MOLECULE": "COCCNCc1cccc(-c2ccc(CN(C(=O)NC3CCCCC3)C3CCN(Cc4ccccc4)CC3)cc2)c1", "inhibition (%)": 3.57}
{"MOLECULE": "CN(C)CCc1c[nH]c2ccc(C(=O)Nc3ccc(-c4ccncc4)cc3)cc12", "inhibition (%)": 0.83}
{"MOLECULE": "N#Cc1ccc(N(CC(=O)NCCc2ccccc2)CC2CC2)c2ccccc12", "inhibition (%)": 0.73}
{"MOLECULE": "Cc1ccc2c(C3=CCN(CCCCC4(C)C(=O)Nc5ccccc54)CC3)c(C)[nH]c2c1 (stereo not given)", "inhibition (%)": 0.34}
{"MOLECULE": "O=C1Nc2cccc3c2C1(CCCCCN1CC=C(c2c[nH]c4ccccc24)CC1)CCC3 (stereo not given)", "inhibition (%)": 10.6}
{"MOLECULE": "COc1ccc2nc(-c3ccc(F)cc3)cc([C@@H](O)[C@@H]3C[C@@H]4CCN3CC4C=NO)c2c1 (stereo not given in full)", "inhibition (%)": 4.75}
{"MOLECULE": "CC[C@H]1CN2CC[C@H]1C[C@@H]2[C@H](O)c1ccnc2ccc(O)cc12", "inhibition (%)": -0.85}
{"MOLECULE": "COc1coc(C(=O)NC2CCN(CC3(c4ccc(Cl)cc4)CCC3)CC2)c1OC", "inhibition (%)": 4.52}
{"MOLECULE": "CC(Cc1ccc(OCCCCOc2ccccc2)cc1)NCCCN1CCOCC1 (stereo not given)", "inhibition (%)": 2.33}
{"MOLECULE": "O=C(/C=C/c1ccc(Cl)c(Cl)c1)N1CCC(CN2CCC(c3c[nH]c4ccc(O)cc34)CC2)CC1", "inhibition (%)": -0.44}
{"MOLECULE": "Cn1nc(C(F)(F)F)cc1-c1ccc(C(=O)NC2CCC(CN3CCC(c4c[nH]c5ccccc45)CC3)CC2)s1 (stereo not given)", "inhibition (%)": 4.44}
{"MOLECULE": "CNCCCCCCc1ccc(CC(C)NCC(O)c2cccc(Cl)c2)cc1 (stereo not given)", "inhibition (%)": 2.29}
{"MOLECULE": "CC[C@H]1CN2CC[C@H]1C[C@H]2[C@H](O)c1cc(-c2cccc(Cl)c2)nc2ccc(OC)cc12", "inhibition (%)": 9.03}
{"MOLECULE": "COC(=O)c1ccc(CC(C)NCC(O)c2cccc3ccccc23)cc1 (stereo not given)", "inhibition (%)": 3.26}
{"MOLECULE": "O=C(NC1CCC(N2CCC3(CC2)C(=O)NCN3c2ccccc2)CC1)c1cc2ccccc2[nH]1 (stereo not given)", "inhibition (%)": -0.89}
{"MOLECULE": "O=c1n[n+](C2CCCCC2)[n-]o1", "inhibition (%)": -0.13}
{"MOLECULE": "CC(Cc1ccc(S(=O)(=O)N(C(C)C)C(C)C)cc1)NCC(O)c1cccc(C(F)(F)F)c1 (stereo not given)", "inhibition (%)": 2.53}
{"MOLECULE": "COC(=O)c1ccc(CC(C)NCC(O)c2ccc(Cl)c(Cl)c2)cc1 (stereo not given)", "inhibition (%)": 3.9}

* * *

# inhibition listing for each entry below
Target: Hexose transporter 1 (Plasmodium falciparum) (UniProt O97467)
Assay: ST_JUDE_LEISH: Cytotoxicity at 2uM final concentration against transgenic Leishmania Mexicana promastigotes LmPfHT that are glucose transport deficient and complemented with the Plasmodium falciparum hexose transporter. Activity is measured by DNA content using SYBR green in vitro
Format: functional

{"MOLECULE": "CC[C@H]1CN2CC[C@H]1C[C@H]2[C@H](O)c1cc(-c2ccc(F)cc2)nc2ccc(OC)cc12", "UOM": "%", "inhibition": -0.06}
{"MOLECULE": "Cc1[nH]c2cc(F)ccc2c1C1=CCN(CCCCC2(C)C(=O)Nc3ccccc32)CC1 (stereo not drawn)", "UOM": "%", "inhibition": 1.23}
{"MOLECULE": "O=C(/C=C/c1ccc(O)cc1)NC1CCC(CN2CCC(c3c[nH]c4ccccc34)CC2)CC1 (stereo not drawn)", "UOM": "%", "inhibition": -2.63}
{"MOLECULE": "COc1ccc(CN(C2CC2)C(C)C(=O)c2[nH]c(C)c(C(C)=O)c2C)cc1 (stereo not drawn)", "UOM": "%", "inhibition": 1.96}
{"MOLECULE": "Cc1cc(N(C)C2CCN(C)CC2)nc(Nc2ccc(Cl)cc2)n1", "UOM": "%", "inhibition": -2.68}
{"MOLECULE": "CCCCCCc1cc(O)c2c3c(c(=O)oc2c1)CCN(C)C3", "UOM": "%", "inhibition": 4.97}
{"MOLECULE": "O=C(/C=C/c1ccc(Cl)c(Cl)c1)N1CCC(CN2CCC(c3c[nH]c4ccccc34)C(O)C2)CC1 (stereo not drawn)", "UOM": "%", "inhibition": 2.3}
{"MOLECULE": "O=C(/C=C/c1ccc(Cl)c(Cl)c1)NCC1CCC(N2CCC(c3c[nH]c4ccccc34)CC2)CC1 (stereo not drawn)", "UOM": "%", "inhibition": 11.2}
{"MOLECULE": "O=C(/C=C/c1cc(F)c(F)cc1F)N1CCC(CN2CCC(c3c[nH]c4ccccc34)CC2)CC1", "UOM": "%", "inhibition": 1.36}
{"MOLECULE": "CC(C)(C)c1ccc(Cn2nc(C(=O)N3CCN(C(=O)C4CCCO4)CC3)c3ccccc32)cc1 (stereo not drawn)", "UOM": "%", "inhibition": 0.1}
{"MOLECULE": "Brc1cnc(NC2=NCCN2)c(Br)c1", "UOM": "%", "inhibition": 3.41}
{"MOLECULE": "Oc1ccc(CN2CCN(CCOC(c3ccc(F)cc3)c3ccc(F)cc3)CC2)cc1Cl", "UOM": "%", "inhibition": -0.31}
{"MOLECULE": "O=C(/C=C/c1ccc(Cl)c(Cl)c1)N1CCC(CN2CCC(c3c(-c4ccc(F)cc4)[nH]c4ccccc34)CC2)CC1", "UOM": "%", "inhibition": -1.9}
{"MOLECULE": "CN1C(=O)[C@H](NC(=O)[C@@H](Cc2ccccc2)NC(=S)Nc2ccccc2)N=C(c2ccccc2)c2ccccc21", "UOM": "%", "inhibition": 0.57}
{"MOLECULE": "COCCNCc1ccc(-c2ccc(CN(C(=O)NC3CCCCC3)C3CCN(Cc4ccccc4)CC3)cc2)cc1", "UOM": "%", "inhibition": 2}
{"MOLECULE": "Cc1cc(CN2CCN(CCOC(c3ccccc3)c3ccccc3)CC2)ccc1O", "UOM": "%", "inhibition": 13.2}
{"MOLECULE": "CCCCNC(c1ccc(Cl)cc1)C(O)c1ccc(Cl)cc1 (stereo not drawn)", "UOM": "%", "inhibition": 8.45}
{"MOLECULE": "O=C(NC1CCC(CN2CCC(c3c[nH]c4ccccc34)CC2)CC1)c1cn(Cc2ccccc2)c2ccccc12 (stereo not drawn)", "UOM": "%", "inhibition": 1.32}
{"MOLECULE": "CC(=O)N(Cc1cccc(-c2cccc(CNCCc3ccccc3)c2)c1)C1CCN(Cc2ccccc2)CC1", "UOM": "%", "inhibition": 1.94}
{"MOLECULE": "CC(Cc1ccc(OCc2ccc(CCN(C)C)cc2)cc1)NCCc1cccc(Cl)c1 (stereo not drawn)", "UOM": "%", "inhibition": 0.77}
{"MOLECULE": "O=C(/C=C/c1ccc(Cl)c(Cl)c1)NCC1CCCC(CN2CCC(c3c[nH]c4ccccc34)CC2)C1 (stereo not drawn)", "UOM": "%", "inhibition": 3.43}
{"MOLECULE": "CC[C@H]1CN2CC[C@@H]1C[C@H]2[C@H](O)c1cc(N2CCC(O)(c3ccccc3)CC2)nc2ccc(OC)cc12", "UOM": "%", "inhibition": 4.26}
{"MOLECULE": "S=C(Nc1ccccc1Cl)NC1CCC(CN2CCC(c3c[nH]c4ccccc34)CC2)CC1 (stereo not drawn)", "UOM": "%", "inhibition": 8.06}
{"MOLECULE": "COCCSc1ccc(CC(C)NCC(O)c2cccc(Cl)c2)cc1 (stereo not drawn)", "UOM": "%", "inhibition": 0.25}
{"MOLECULE": "COc1cccc(CN2CCC(CCOC(c3ccccc3)c3ccccc3)CC2)c1O", "UOM": "%", "inhibition": -0.08}
{"MOLECULE": "Cc1csc(-c2ccc3[nH]cc(C4=CCN(C)CC4)c3c2)n1", "UOM": "%", "inhibition": 9.43}
{"MOLECULE": "O=C(/C=C/c1ccc(Cl)c(Cl)c1)NCC1CCC(CN2CCC(c3c[nH]c4ccccc34)CC2)CC1 (stereo not drawn)", "UOM": "%", "inhibition": -3.01}
{"MOLECULE": "CN1CC=C(c2c[nH]c3ccc(C(=O)c4nccs4)cc23)CC1", "UOM": "%", "inhibition": -1.47}
{"MOLECULE": "N=C(N)NC(=O)Nc1ccc([N+](=O)[O-])c(Cl)c1", "UOM": "%", "inhibition": 1.53}
{"MOLECULE": "CCCN(CC(=O)NCCc1ccccc1)c1ccc(C#N)c2ccccc12", "UOM": "%", "inhibition": 1.5}
{"MOLECULE": "CC(C)n1ncc2c(C(=O)Nc3ccc(C#N)c(Cl)c3)cc(C3CC3)nc21", "UOM": "%", "inhibition": 1.01}
{"MOLECULE": "CC(Cc1ccc(-c2nc3ccccc3[nH]2)cc1)NCC(O)c1cccc(C(F)(F)F)c1 (stereo not drawn)", "UOM": "%", "inhibition": -1.73}
{"MOLECULE": "COc1ccc(CC(C)NCC(O)c2cccc(Br)c2)cc1 (stereo not drawn)", "UOM": "%", "inhibition": 8.65}
{"MOLECULE": "CN(C)c1cccc(NC(=O)NC2N=C(c3ccccc3)c3ccccc3N(CC(=O)N(C)c3ccccc3)C2=O)c1 (stereo not drawn)", "UOM": "%", "inhibition": 4.22}
{"MOLECULE": "C=C[C@H]1CN2CC[C@H]1C[C@H]2[C@H](OS(=O)(=O)O)c1ccnc2ccccc12", "UOM": "%", "inhibition": 8.07}
{"MOLECULE": "CNC(=O)c1ccc2[nH]cc(C3CCN(CC4CCN(C(=O)/C=C/c5ccc(Cl)c(Cl)c5)CC4)CC3)c2c1", "UOM": "%", "inhibition": -0.15}
{"MOLECULE": "O=[N+]([O-])c1ccc(Oc2c(Cl)cc(S(=O)(=O)N3CCC(CN4CCC(c5c[nH]c6ccccc56)CC4)CC3)cc2Cl)c(Cl)c1", "UOM": "%", "inhibition": 0.25}
{"MOLECULE": "Cc1nc2ccccc2n1C1CC2CCC(C1)N2Cc1nccn1-c1ccccc1 (stereo not drawn)", "UOM": "%", "inhibition": 3.24}
